- Test System: T1, human PACAP27 (human, C-terminal leucine is amidated; 125I-labelled in Example 10)
- T1 peptide: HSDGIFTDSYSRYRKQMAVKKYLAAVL
- Run Description: cell-based or functional assay
Endpoint Name: IC50, 0.1 nM PACAP27-induced PAC1-R mediated cAMP increase (pM)
Please reply with the bare figure in pM and do not write the unit itself.

anti-PACAP antibody Ab3 (antibody, human IgG1, kappa, N297A, V domains shown, full-length rabbit/human chimeric antibody) VH: QEQLVESGGGLVQPEGSLTLTCTASGFSFSSSDYMCWVRQAPGKGLEWIGCIDAGSSGDTYFASWAKGRFTISKTSSTTVTLQMTSLTAADTATYFCARHLYGSITFAFGLWGQGTLVTVSS VL: AAVLTQTPSPVSAAVGGTVTINCQASQSIGSDLAWYQQKPGQPPKLLIYDASTLASGVPSRFSGSGSGTQFTLTISGVQCDDAATYYCQGTYYSSGWYTAFGGGTEVVVKR = 90
anti-PACAP antibody Ab18 (antibody, human IgG1, kappa, N297A, V domains shown, full-length rabbit/human chimeric antibody) VH: QSVEESGGRLVTPGTPLTLTCTVSGFSLSSAALSWVRQAPGKGLEWIGIIDKGVMSYYASWAKGRFTISKTSSTTVDLKVTSPTTEDTATYFCARGGGEFFIWGQGTLVTVSS VL: AQVLTQTPSSVSAAVGGTVTINCQSSKSVYNNNWLSWYQQKPGQPPKFLIYQASNLASGVPSRFKGSGSGTQFTLTISDLECDDAATYYCAGGYSGNIVGFGGGTEVVVKR = 91.6
anti-PACAP antibody Ab6 (antibody, human IgG1, kappa, N297A, V domains shown, full-length rabbit/human chimeric antibody) VH: LEQSGGGAEGGLVKPGGSLELCCKASGFSLSSTYWMCWVRQAPGKGLEWIGCIYTGSGSTDYASWVNGQFTLSRDIDQSTGCLQLNSLTVADTAMYYCTKNFDLWGPGTLVTVSS VL: AQVLTQTPSSVSAAVGGTVTINCQSSPSVYSNNYLSWFQQKPGQPPKGLIADASTLASGVPSRFKGSGSGTQFTLTISGVQCDDAAAYYCLGYYDCGSTDCHAFGGGTEVVVKR = 380
anti-PACAP antibody Ab13 (antibody, human IgG1, kappa, N297A, V domains shown, full-length rabbit/human chimeric antibody) VH: QSVEESGGRLVTPGTPLTLTCTVSGFSLSSAAMNWVRQAPGKGLEWIGIIDNTAGTYYAPWAKGRFTISKTSSTTVDLKMTSPTTEDTATYFCARGGGEFFIWGPGTLVTVSS VL: AQVLTQTPSSVSAAVGGTVTINCQSSQSVHDGSYLSWYQQKPGQPPNFLIYQASNLASGVPSRFKGSGSGTQFTLTISDLECDDAATYYCAGGYSSNICGFGGGTEVVVKR = 74.1

// moving on: another record for IC50, 0.1 nM PACAP27-induced PAC1-R mediated cAMP increase
IC50, 0.1 nM PACAP27-induced PAC1-R mediated cAMP increase lookup needed for anti-PACAP antibody Ab16 (antibody, human IgG1, kappa, N297A, V domains shown, full-length rabbit/human chimeric antibody) VH: QSVEESGGRLVTPGTPLTLTCTVSGFSLSSAAMSWVRQAPGKGLEWIGIIDDSGNTYYASWAKARFTISKTSSTTVDLKMTSPTTEDTATYFCARGGGEFFIWGPGTLVTVSS VL: DPVLTQTPSSVSAAVGGTVTINCQSSQSVYNNKWLSWYQQKPGQSPKFLIYQASNLASGVPSRFKGSGSGTQFTLTISDLECDDGATYYCAGGYRGNVCGFGGGTEVVVKR , thanks. 192
